- Protocol: Half-life in human liver microsome pre-incubated for 10 mins followed by addition of NADPH regenerating system after 5 to 60 mins by LC/MS/MS analysis
- Assay type: ADME
- Test Conditions: liver microsomes
Metric: half-life (min)
Report the figure in min without appending any unit label.

compound=Cc1nn(C)c(COc2ccc(N3CCN(S(=O)(=O)N(C)C)CC3)cc2)c1-c1cccc2c(CCCOc3cccc4ccccc34)c(C(=O)O)n(CCN3CCOCC3)c12 metric=half-life numeric_result=21.7

Now consider a different compound.
Given the entry Cc1nn(C)c(COc2ccc(N3CCN(S(=O)(=O)N(C)C)CC3)cc2)c1-c1cccc2c(CCCOc3cccc4ccccc34)c(C(=O)O)n(CCN3CCN(C(=O)COc4cccc5c4C(=O)N(C4CCC(=O)NC4=O)C5=O)CC3)c12 (configuration not stated) , report its measured half-life. 20.6

###

The entries below come with measured Kd values attached.
- System Name: Induced myeloid leukemia cell differentiation protein Mcl-1 (Homo sapiens)
- Sequence (Q07820 whole entry): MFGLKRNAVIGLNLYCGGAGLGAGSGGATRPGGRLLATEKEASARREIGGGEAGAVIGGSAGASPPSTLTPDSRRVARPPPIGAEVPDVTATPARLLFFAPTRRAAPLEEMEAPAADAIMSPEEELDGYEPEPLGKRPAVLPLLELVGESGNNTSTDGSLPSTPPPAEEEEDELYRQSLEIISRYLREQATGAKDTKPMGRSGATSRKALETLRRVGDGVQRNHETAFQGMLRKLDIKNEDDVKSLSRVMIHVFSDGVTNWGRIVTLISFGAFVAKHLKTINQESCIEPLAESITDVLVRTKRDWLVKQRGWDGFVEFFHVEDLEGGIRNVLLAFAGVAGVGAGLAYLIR
- Protocol: Binding affinity to His-tagged biotinylated human MCL1 by surface plasmon resonance method
Report the figure in nM without appending any unit label.

compound=Cc1nn(C)c(COc2ccc(N3CCN(S(=O)(=O)N(C)C)CC3)cc2)c1-c1cccc2c(CCCOc3cccc4ccccc34)c(C(=O)O)n(CCN3CCOCC3)c12 metric=Kd numeric_result=19

Now consider a different compound.
Given the entry Cc1nn(C)c(COc2ccc(N3CCN(S(=O)(=O)N(C)C)CC3)cc2)c1-c1cccc2c(CCCOc3cccc4ccccc34)c(C(=O)O)n(CCN3CCN(C(=O)COc4cccc5c4C(=O)N(C4CCC(=O)NC4=O)C5=O)CC3)c12 (configuration not stated) , report its measured Kd. 30
